# Experiment: in vitro
# Format: cell-based
# Reported Conditions: human, Cytotoxicity CC50 TZM-bI
Output Condition met for records whose CC50 at 48 h is lower than 10 µM, Condition not met for records at or above 10 µM.

Below are worked cases with known answers.
Compound	Category
Cc1cc(/C=C\C#N)cc(C)c1Nc1nc(N)nc(Nc2ccc(C#N)cc2)n1	Condition not met
Cc1cc(/C=C/C#N)cc(C)c1Nc1ccnc(Nc2ccc(C#N)cc2)n1 [TMC278, Rilpivirine, reference compound]	Condition met
Cc1cc(/C=C/C#N)cc(C)c1Nc1nc(N)nc(Nc2ccc(C#N)cc2)n1	Condition not met
Cc1cc(C=CC#N)cc(C)c1Nc1nc(Nc2ccc(C#N)cc2)nc(N2CCOCC2)n1	Condition not met
N#CC=Cc1cc(F)c(Nc2nc(N)nc(Nc3ccc(C#N)cc3)n2)c(F)c1	Condition not met
Cc1cc(C=CC#N)cc(C)c1Nc1nc(Nc2ccc(C#N)cc2)nc(N(C)C)n1	Condition met
Cc1cc(C=CC#N)cc(C)c1Nc1nc(N)nc(Nc2ccc(C#N)cc2)n1	Condition not met
Cc1cc(C=CC#N)cc(C)c1Oc1nc(Nc2ccc(C#N)cc2)nc(N(C)C)n1	Condition met
Cc1cc(C=CC#N)cc(C)c1Nc1nc(Nc2ccc(C#N)cc2)nc(NC(C)C)n1	Condition not met
Cc1cc(C=CC#N)cc(C)c1Oc1nc(N)nc(Nc2ccc(C#N)cc2)n1	Condition not met

Quick check: does Cc1cc(C)c(Nc2ccnc(Nc3ccc(C#N)cc3)n2)c(C)c1 [TMC120, reference compound] have CC50 at 48 h under 10 µM? Condition met

Quick check: does Cc1cc(C=CC#N)cc(C)c1Nc1nc(Nc2ccc(C#N)cc2)nc(N2CCN(C)CC2)n1 have CC50 at 48 h under 10 µM? Condition not met

Quick check: does CNc1nc(Nc2ccc(C#N)cc2)nc(Nc2c(C)cc(C=CC#N)cc2C)n1 have CC50 at 48 h under 10 µM? Condition met

----------
# System: VI829
# Experiment: TZM-bl antiviral assay, wild type VI829 (primary subtype C isolate)
# Type: cell-based, HIV-1
# Reported Conditions: Human immunodeficiency virus 1; TZM-bl cells, VI829 wild type; read-out: Antiviral activity-wild type viruses EC50 TZM-bI VI829
# Protocol: The JC53-BL cell line, also known as the TZM-bl cell line (NIH AIDS Research and Reference Reagent Program, Germantown, USA), was used for the evaluation of anti-HIV activity. […] The antiviral activity of the newly designed compounds was measured by pre-incubating ten thousand TZM-bl cells (at 10^5 cells/mL in culture medium supplemented with 30 μg/mL DEAE dextran) in a 96-well plate for 30 minutes at 37° C., 5% CO2 in the presence or absence of serial dilutions of the respective compound. […]
I'd appreciate it if you could supply pEC50 values for the items below.
Give bare numbers, as −log10 of the molar value.

Please review the following examples before continuing.
Compound	pEC50
Cc1cc(C=CC#N)cc(C)c1Oc1nc(N)nc(Nc2ccc(C#N)cc2)n1	9.19
Cc1cc(C=CC#N)cc(C)c1Nc1nc(Nc2ccc(C#N)cc2)nc(N2CCCCC2)n1	7.72
Cc1cc(C=CC#N)cc(C)c1Nc1nc(Nc2ccc(C#N)cc2)nc(NC(C)C)n1	8.37
Cc1cc(C)c(Nc2ccnc(Nc3ccc(C#N)cc3)n2)c(C)c1 [TMC120, reference compound]	8.70
CNc1nc(Nc2ccc(C#N)cc2)nc(Oc2c(C)cc(C=CC#N)cc2C)n1	8.80
Cc1cc(C=CC#N)cc(C)c1Nc1nc(Nc2ccc(C#N)cc2)nc(N(C)C)n1	8.36
Cc1cc(/C=C/C#N)cc(C)c1Nc1nc(N)nc(Nc2ccc(C#N)cc2)n1	8.89
Cc1cc(/C=C/C#N)cc(C)c1Nc1ccnc(Nc2ccc(C#N)cc2)n1 [TMC278, Rilpivirine, reference compound]	9.00
Cc1cc(/C=C\C#N)cc(C)c1Nc1nc(N)nc(Nc2ccc(C#N)cc2)n1	8.96

Now for the compound whose pEC50 we want.
System VI829. Read-out pEC50. Item Cc1cc(C=CC#N)cc(C)c1Nc1nc(N)nc(Nc2ccc(C#N)cc2)n1 . Report value. 8.96

----------
I'd appreciate it if you could supply pEC50 values for the items below.
# Tested on: Ba-L K101E + K103N + V108VI + V179M + Y181C + E138Q
# Experiment: Antiviral activity, NNRTI-resistant virus K101E+K103N+V108VI+V179M+Y181C+E138Q
# Type: cell-based, HIV-1
# Reported Conditions: Human immunodeficiency virus 1, BAL, read-out: Antiviral activity-NNRTI-resistant viruses EC50 Ba-L *
Numbers only, as −log10 of the molar value.

Please review the following examples before continuing.
Molecule	Experimental Result
CNc1nc(Nc2ccc(C#N)cc2)nc(Nc2c(C)cc(C=CC#N)cc2C)n1	7.18
Cc1cc(C=CC#N)cc(C)c1Oc1nc(N)nc(Nc2ccc(C#N)cc2)n1	7.21
Cc1cc(C=CC#N)cc(C)c1Oc1nc(Nc2ccc(C#N)cc2)nc(N(C)C)n1	6.10
Cc1cc(C=CC#N)cc(C)c1Nc1nc(Nc2ccc(C#N)cc2)nc(N2CCOCC2)n1	6.20
N#CC=Cc1cc(F)c(Nc2nc(N)nc(Nc3ccc(C#N)cc3)n2)c(F)c1	6.23
Cc1cc(C=CC#N)cc(C)c1Nc1nc(Nc2ccc(C#N)cc2)nc(N(C)C)n1	6.34
Cc1cc(/C=C/C#N)cc(C)c1Nc1nc(N)nc(Nc2ccc(C#N)cc2)n1	7.64
Cc1cc(C=CC#N)cc(C)c1Nc1nc(N)nc(Nc2ccc(C#N)cc2)n1	7.64
Cc1cc(/C=C/C#N)cc(C)c1Nc1ccnc(Nc2ccc(C#N)cc2)n1 [TMC278, Rilpivirine, reference compound]	7.57
Cc1cc(C=CC#N)cc(C)c1Nc1nc(Nc2ccc(C#N)cc2)nc(NC(C)C)n1	6.37

State recorded pEC50 for all listed molecules.
1. CNc1nc(Nc2ccc(C#N)cc2)nc(Oc2c(C)cc(C=CC#N)cc2C)n1
2. Cc1cc(/C=C\C#N)cc(C)c1Nc1nc(N)nc(Nc2ccc(C#N)cc2)n1

[7.11, 6.63]

State recorded pEC50 for all listed molecules.
1. Cc1cc(C#N)cc(C)c1Oc1nc(Nc2ccc(C#N)cc2)nc(N)c1Br [TMC125, Etravirine, reference compound]
2. Cc1cc(C=CC#N)cc(C)c1Nc1nc(Nc2ccc(C#N)cc2)nc(N2CCN(C)CC2)n1

1: 7.12; 2: 6.50

----------
I'd appreciate it if you could supply FC (Y181C) values for the items below.
# Test system: VI829 Y181C
# Experiment: Antiviral activity, NNRTI-resistant virus Y181C
# Assay type: cell-based, HIV-1
# Reported Conditions: VI829 Y181C
One number for each entry.

Please review the following examples before continuing.
Compound	Experimental Result
Cc1cc(/C=C\C#N)cc(C)c1Nc1nc(N)nc(Nc2ccc(C#N)cc2)n1	11
Cc1cc(C#N)cc(C)c1Oc1nc(Nc2ccc(C#N)cc2)nc(N)c1Br [TMC125, Etravirine, reference compound]	5
CNc1nc(Nc2ccc(C#N)cc2)nc(Oc2c(C)cc(C=CC#N)cc2C)n1	5

Provide only the value of recorded FC (Y181C) for Cc1cc(/C=C/C#N)cc(C)c1Nc1nc(N)nc(Nc2ccc(C#N)cc2)n1 2

----------
# Tested on: TZM-bl cells
# Experiment: in vitro
# Format: cell-based
# Reported Conditions: human, 48 h
Property Measured: CC50 (µM)
Answers are plain numbers, in µM.

Provide only the value of recorded CC50 for Cc1cc(/C=C/C#N)cc(C)c1Nc1ccnc(Nc2ccc(C#N)cc2)n1 [TMC278, Rilpivirine, reference compound] 7.74

----------
# System: VI829 Y181C
# Experiment: Antiviral activity, NNRTI-resistant virus Y181C
# Type: cell-based, HIV-1
# Reported Conditions: VI829 Y181C
I'd appreciate it if you could supply FC (Y181C) values for the items below.
One number for each entry.

Please review the following examples before continuing.
Compound	FC (Y181C)
Cc1cc(C=CC#N)cc(C)c1Nc1nc(Nc2ccc(C#N)cc2)nc(N(C)C)n1	6
Cc1cc(C=CC#N)cc(C)c1Nc1nc(Nc2ccc(C#N)cc2)nc(NC(C)C)n1	10
Cc1cc(/C=C/C#N)cc(C)c1Nc1ccnc(Nc2ccc(C#N)cc2)n1 [TMC278, Rilpivirine, reference compound]	3
Cc1cc(C=CC#N)cc(C)c1Nc1nc(N)nc(Nc2ccc(C#N)cc2)n1	3
Cc1cc(C)c(Nc2ccnc(Nc3ccc(C#N)cc3)n2)c(C)c1 [TMC120, reference compound]	5

State recorded FC (Y181C) for all listed compounds.
1. Cc1cc(C=CC#N)cc(C)c1Nc1nc(Nc2ccc(C#N)cc2)nc(N2CCCCC2)n1
2. Cc1cc(C=CC#N)cc(C)c1Oc1nc(N)nc(Nc2ccc(C#N)cc2)n1

1. 12
2. 6
